System: IL-8
Experiment: Monocyte release of IL-8
Assay type: cell-based, human
Settings: Homo sapiens, Monocyte; IL8
parameterMeasured: EC50 (nM)
Please state the figure in nM; there is no need to write the unit.

Item CCCCCCCCCCCCCCCC(=O)OCC[N+](C)(C)CCOCn1cc(C)c(=O)[nH]c1=O has what recorded EC50?
2900

* * *

Assay: LDH
Assay type: cell-based
Details: ldh assay, effect TC, read-out: Tolerated Concentration (EC50)
parameterMeasured: MNTC (µM)
Your answer is read as µM, so omit the unit and give the number.

Reported MNTC, compound CCCCCCCCCCCCCCCC(=O)OCC[N+](C)(C)CCOCn1cc(C)c(=O)[nH]c1=O : ____
100

* * *

Assay: MTS
Format: cell-based
Conditions: mts assay, effect TC, read-out: Tolerated Concentration (EC50)
parameterMeasured: MNTC (µM)
State the answer as a number, implicitly in µM.

What value of MNTC has been recorded for this entry: CCCCCCCCCCCCCCCC(=O)OCC[N+](C)(C)CCOCn1cc(C)c(=O)[nH]c1=O
100
